- Tested on: SK-LU-1
- experiment description: relative viability (nuclei count vs DMSO), 5 days (fraction); higher = more cells survive
- particulars: first compound 0.08 µM
quantity measured: relative viability

query: GET relative viability | system: SK-LU-1 | item: Cc1cnc(-c2cnc(NCCNc3ccc(C#N)cn3)nc2-c2ccc(Cl)cc2Cl)[nH]1 + Cc1nc(NC(=O)N2CCC[C@H]2C(N)=O)sc1-c1ccnc(C(C)(C)C(F)(F)F)c1 [Alpelisib] (partner 2 µM)
result: 1.09

query: Using SK-LU-1 as the test system, report measured relative viability of Cc1cnc(-c2cnc(NCCNc3ccc(C#N)cn3)nc2-c2ccc(Cl)cc2Cl)[nH]1 + CCNC(=O)c1noc(-c2cc(C(C)C)c(O)cc2O)c1-c1ccc(CN2CCOCC2)cc1 [Luminespib] (partner 0.01 µM) .
result: 0.196

query: Tell me its relative viability on SK-LU-1: Cc1cnc(-c2cnc(NCCNc3ccc(C#N)cn3)nc2-c2ccc(Cl)cc2Cl)[nH]1 + CC(=O)c1c(C)c2cnc(Nc3ccc(N4CCNCC4)cn3)nc2n(C2CCCC2)c1=O [Palbociclib] (partner 0.5 µM)
result: 0.417

query: Send back SK-LU-1 relative viability of Cc1cnc(-c2cnc(NCCNc3ccc(C#N)cn3)nc2-c2ccc(Cl)cc2Cl)[nH]1 + COc1cccc2cc(-c3nc([C@H]4CC[C@H](C(=O)O)CC4)n4ncnc(N)c34)[nH]c12 [OSI-027] (partner 0.5 µM) only.
result: 0.344

query: State recorded relative viability with SK-LU-1, entry O=c1[nH]c2ccccc2n1C1CCN(CCCC(c2ccc(F)cc2)c2ccc(F)cc2)CC1 [Pimozide] + CS(=O)(=O)N1CCN(Cc2cc3nc(-c4cccc5[nH]ncc45)nc(N4CCOCC4)c3s2)CC1 [Pictilisib] (partner 1 µM) , no comment.
result: 0.643

----------
For each entry below, report its relative viability value.
- Tested on: EPLC-272H
- experiment description: relative viability (nuclei count vs DMSO), 5 days (fraction); higher = more cells survive
- particulars: first compound 0.005 µM
Lab note: record just the number, no unit beside it.

query: Name the recorded relative viability of the compound listed here: Nc1ccn([C@@H]2O[C@H](CO)[C@@H](O)[C@@H]2O)c(=O)n1 [Cytarabine] + CC(=O)c1c(C)c2cnc(Nc3ccc(N4CCNCC4)cn3)nc2n(C2CCCC2)c1=O [Palbociclib] (partner 0.5 µM)
result: 0.319

query: Assign relative viability to the following record: Nc1ccn([C@@H]2O[C@H](CO)[C@@H](O)[C@@H]2O)c(=O)n1 [Cytarabine] + O=C(c1cc(Cc2n[nH]c(=O)c3ccccc23)ccc1F)N1CCN(C(=O)C2CC2)CC1 [Olaparib] (partner 8 µM)
result: 0.476

query: Check the records and state relative viability for COc1cc2nccc(Oc3ccc(NC(=O)Nc4cc(C)on4)c(Cl)c3)c2cc1OC [Tivozanib] + Cc1nc(Nc2ncc(C(=O)Nc3c(C)cccc3Cl)s2)cc(N2CCN(CCO)CC2)n1 [Dasatinib] (partner 0.075 µM)
result: 0.378

query: Indicate the recorded relative viability value for this compound: COc1cc2nccc(Oc3ccc(NC(=O)Nc4cc(C)on4)c(Cl)c3)c2cc1OC [Tivozanib] + CC1(C)CCC(c2ccc(Cl)cc2)=C(CN2CCN(c3ccc(C(=O)NS(=O)(=O)c4ccc(N[C@H](CCN5CCOCC5)CSc5ccccc5)c(S(=O)(=O)C(F)(F)F)c4)cc3)CC2)C1 [Navitoclax] (partner 0.5 µM)
result: 0.916

query: Consider the compound Nc1ccn([C@@H]2O[C@H](CO)[C@@H](O)[C@@H]2O)c(=O)n1 [Cytarabine] + CC1(C)CCC(c2ccc(Cl)cc2)=C(CN2CCN(c3ccc(C(=O)NS(=O)(=O)c4ccc(N[C@H](CCN5CCOCC5)CSc5ccccc5)c(S(=O)(=O)C(F)(F)F)c4)cc3)CC2)C1 [Navitoclax] (partner 0.5 µM) . State its measured relative viability.
result: 1.01

query: Look up and state reported relative viability for COc1cc2nccc(Oc3ccc(NC(=O)Nc4cc(C)on4)c(Cl)c3)c2cc1OC [Tivozanib] + CS(=O)(=O)N1CCN(Cc2cc3nc(-c4cccc5[nH]ncc45)nc(N4CCOCC4)c3s2)CC1 [Pictilisib] (partner 1 µM)
result: 0.311

query: Complete the entry with relative viability for COc1cc2nccc(Oc3ccc(NC(=O)Nc4cc(C)on4)c(Cl)c3)c2cc1OC [Tivozanib] + Cc1cc(Nc2cc(N3CCN(C)CC3)nc(Sc3ccc(NC(=O)C4CC4)cc3)n2)n[nH]1 [Tozasertib] (partner 0.1 µM)
result: 0.195

query: Annotate the compound Nc1ccn([C@@H]2O[C@H](CO)[C@@H](O)[C@@H]2O)c(=O)n1 [Cytarabine] + Cc1nc(NC(=O)N2CCC[C@H]2C(N)=O)sc1-c1ccnc(C(C)(C)C(F)(F)F)c1 [Alpelisib] (partner 2 µM) with its measured relative viability.
result: 0.7

----------
- Test system: NCI-H23
- experiment description: relative viability (nuclei count vs DMSO), 5 days (fraction); higher = more cells survive
- particulars: first compound 8 µM
Task for the reader: assign each of the following compounds its reported relative viability.
Lab note: record just the number, no unit beside it.

query: Report relative viability, nothing else, for this compound: O=c1[nH]c2ccccc2n1C1CCN(CCCC(c2ccc(F)cc2)c2ccc(F)cc2)CC1 [Pimozide] + CC(=O)c1c(C)c2cnc(Nc3ccc(N4CCNCC4)cn3)nc2n(C2CCCC2)c1=O [Palbociclib] (partner 0.5 µM)
result: 0.553

query: Kindly indicate its recorded relative viability. Item: O=c1[nH]c2ccccc2n1C1CCN(CCCC(c2ccc(F)cc2)c2ccc(F)cc2)CC1 [Pimozide] + Cc1nc(NC(=O)N2CCC[C@H]2C(N)=O)sc1-c1ccnc(C(C)(C)C(F)(F)F)c1 [Alpelisib] (partner 2 µM)
result: 0.745

query: Quick one: give measured relative viability for O=c1[nH]c2ccccc2n1C1CCN(CCCC(c2ccc(F)cc2)c2ccc(F)cc2)CC1 [Pimozide] + Cc1cc(Nc2cc(N3CCN(C)CC3)nc(Sc3ccc(NC(=O)C4CC4)cc3)n2)n[nH]1 [Tozasertib] (partner 0.1 µM)
result: 0.314

query: Give the reported relative viability for this compound. O=c1[nH]c2ccccc2n1C1CCN(CCCC(c2ccc(F)cc2)c2ccc(F)cc2)CC1 [Pimozide] + CC(=O)Nc1cccc(-n2c(=O)n(C3CC3)c(=O)c3c(Nc4ccc(I)cc4F)n(C)c(=O)c(C)c32)c1 [Trametinib] (partner 0.02 µM)
result: 0.318

----------
- Tested on: NCI-H727
- experiment description: relative viability (nuclei count vs DMSO), 5 days (fraction); higher = more cells survive
- particulars: first compound 0.1265 µM
Field: relative viability. Provide a value for each of the compounds that follow.
Respond with the number and no other words.

query: Given Cc1sc2c(c1C)C(c1ccc(Cl)cc1)=N[C@@H](CC(=O)OC(C)(C)C)c1nnc(C)n1-2 [JQ1] + NC(=O)Nc1cc(-c2cccc(F)c2)sc1C(=O)N[C@H]1CCCNC1 [AZD7762] (partner 0.2 µM) , respond with its relative viability.
result: 0.61

query: Give the reported value of relative viability for this record: Cc1sc2c(c1C)C(c1ccc(Cl)cc1)=N[C@@H](CC(=O)OC(C)(C)C)c1nnc(C)n1-2 [JQ1] + Cc1cc(Nc2cc(N3CCN(C)CC3)nc(Sc3ccc(NC(=O)C4CC4)cc3)n2)n[nH]1 [Tozasertib] (partner 0.1 µM)
result: 0.516

query: Answer with reported relative viability of Cc1sc2c(c1C)C(c1ccc(Cl)cc1)=N[C@@H](CC(=O)OC(C)(C)C)c1nnc(C)n1-2 [JQ1] + CC(=O)Nc1cccc(-n2c(=O)n(C3CC3)c(=O)c3c(Nc4ccc(I)cc4F)n(C)c(=O)c(C)c32)c1 [Trametinib] (partner 0.02 µM)
result: 0.421

query: Item Cc1sc2c(c1C)C(c1ccc(Cl)cc1)=N[C@@H](CC(=O)OC(C)(C)C)c1nnc(C)n1-2 [JQ1] + Nc1ncn([C@H]2C[C@H](O)[C@@H](CO)O2)c(=O)n1 [Decitabine] (partner 2 µM) : provide relative viability
result: 0.877

query: Please supply the value of reported relative viability for the item Cc1sc2c(c1C)C(c1ccc(Cl)cc1)=N[C@@H](CC(=O)OC(C)(C)C)c1nnc(C)n1-2 [JQ1] + CC1(C)CCC(c2ccc(Cl)cc2)=C(CN2CCN(c3ccc(C(=O)NS(=O)(=O)c4ccc(N[C@H](CCN5CCOCC5)CSc5ccccc5)c(S(=O)(=O)C(F)(F)F)c4)cc3)CC2)C1 [Navitoclax] (partner 0.5 µM)
result: 0.453

----------
- Tested on: NCI-H1944
- experiment description: relative viability (nuclei count vs DMSO), 5 days (fraction); higher = more cells survive
- particulars: first compound 0.05 µM
quantity measured: relative viability
Quick one: just the number, no unit, thanks!

query: Give a short answer stating reported relative viability for COc1cc2nccc(Oc3ccc(NC(=O)Nc4cc(C)on4)c(Cl)c3)c2cc1OC [Tivozanib] + NC(=O)Nc1cc(-c2cccc(F)c2)sc1C(=O)N[C@H]1CCCNC1 [AZD7762] (partner 0.2 µM) .
result: 0.378

query: Retrieve relative viability measured for COc1cc2nccc(Oc3ccc(NC(=O)Nc4cc(C)on4)c(Cl)c3)c2cc1OC [Tivozanib] + C[C@@H](Oc1cc(-c2cnn(C3CCNCC3)c2)cnc1N)c1c(Cl)ccc(F)c1Cl [Crizotinib] (partner 1 µM) and print it.
result: 1.1

query: Return reported relative viability. Input compound: COc1cc2nccc(Oc3ccc(NC(=O)Nc4cc(C)on4)c(Cl)c3)c2cc1OC [Tivozanib] + O=C(CCCCCCC(=O)Nc1ccccc1)NO [Vorinostat] (partner 1 µM)
result: 0.534

query: Read off the recorded relative viability for Nc1ccn([C@@H]2O[C@H](CO)[C@@H](O)[C@@H]2O)c(=O)n1 [Cytarabine] + CCNC(=O)c1noc(-c2cc(C(C)C)c(O)cc2O)c1-c1ccc(CN2CCOCC2)cc1 [Luminespib] (partner 0.01 µM)
result: 0.264

query: Retrieve relative viability measured for COc1cc2nccc(Oc3ccc(NC(=O)Nc4cc(C)on4)c(Cl)c3)c2cc1OC [Tivozanib] + C[C@]1(O)C[C@@H](c2nc(-c3ccc4ccc(-c5ccccc5)nc4c3)c3c(N)nccn32)C1 [Linsitinib] (partner 1 µM) and print it.
result: 1.29

query: Give the measured relative viability for Nc1ccn([C@@H]2O[C@H](CO)[C@@H](O)[C@@H]2O)c(=O)n1 [Cytarabine] + CC(=O)c1c(C)c2cnc(Nc3ccc(N4CCNCC4)cn3)nc2n(C2CCCC2)c1=O [Palbociclib] (partner 0.5 µM)
result: 0.207

query: Could you please provide reported relative viability for COc1cc2nccc(Oc3ccc(NC(=O)Nc4cc(C)on4)c(Cl)c3)c2cc1OC [Tivozanib] + COc1cc2c(Oc3ccc(NC(=O)C4(C(=O)Nc5ccc(F)cc5)CC4)cc3F)ccnc2cc1OCCCN1CCOCC1 [Foretinib] (partner 0.25 µM) ? Thanks!
result: 0.926
